In what follows, each item is paired with its pIC50 for human FGFR4 (Homo sapiens).
pIC50: −log10 of the molar value.

Before answering, review these 3 worked examples.
input: If you can, please state the reported pIC50 value of [2H]C([2H])([2H])Oc1cc(OC([2H])([2H])[2H])c(F)c(C2CCc3c(-c4c(NC(=O)C=C)cnn4C)n[nH]c3C2)c1F (single isomer, unassigned) [Compound S8-P1] .
output: > 8.00

input: Consider the compound shown here: C=CC(=O)Nc1cnn(C)c1-c1n[nH]c2c1COC(c1c(F)c(OC)cc(OC)c1F)C2 (single isomer, unassigned) [Compound S6-P1] What is its recorded pIC50?
output: < 7.00

input: Which pIC50 is listed for [2H]C([2H])([2H])n1ncc(NC(=O)C=C)c1-c1n[nH]c2c1CCC(c1cc(OC)cc(OC)c1F)C2 (single isomer, unassigned) [Compound S16-P3] ?
output: 7.00 to 8.00

Further cases:
input: Bench note: what pIC50 did C=CC(=O)Nc1c[nH]nc1-c1n[nH]c2c1CCC(c1cc(OC)cc(OC)c1F)C2 (single isomer, unassigned) [Compound S15-P4] show?
output: 7.00 to 8.00

input: Item C=CC(=O)Nc1cn[nH]c1-c1n[nH]c2c1CCC[C@@H](c1c(F)c(OC)cc(OC)c1F)C2 [Compound S11-P2] has what recorded pIC50?
output: > 8.00

input: I would be grateful if you could share the reported pIC50 for C=CC(=O)Nc1ncn(C)c1-c1n[nH]c2c1CCC(c1c(F)c(OC)cc(OC)c1F)C2 (single isomer, unassigned) [Compound S3-P1] .
output: < 7.00

input: Param item = C=CC(=O)Nc1cnn(C)c1-c1n[nH]c2c1CCC(c1c(F)c(OC)cc(OC)c1F)=C2 [Compound S5-P1] ; retrieve measured pIC50.
output: 7.00 to 8.00

input: GET /values?readout=pIC50&item= C=CC(=O)Nc1cnn(CC)c1-c1n[nH]c2c1CC[C@H](c1c(F)c(OC)cc(OC)c1F)C2 [Compound S14-P2]
output: > 8.00

* * *

compounds and their reported IC50
Tested on: MAPK phosphorylation in Hep3B cells stimulated with FGF19
Test: FGFR4 pMAPK AlphaLISA SureFire Ultra assay
Type: cell-based
Settings: Homo sapiens, Hep3B, serum-starved, compound 1 hour, FGF19 100 ng/ml for 4 hours, read-out: Potency (IC50), FGFR4 pMAPK AlphaLISA

Here's what some known entries look like.
input: Any idea what its IC50 is? The compound is C=CC(=O)Nc1cnn(C(C)C)c1-c1n[nH]c2c1CCC(c1c(F)c(OC)cc(OC)c1F)C2 (single isomer, unassigned) [Compound S17-P1]
output: 0.01 to 0.1 µM

input: // returns reported IC50 for input [2H]C([2H])([2H])n1ncc(NC(=O)C=C)c1-c1n[nH]c2c1CCC(c1cc(OC)cc(OC)c1F)C2 (single isomer, unassigned) [Compound S16-P3]
output: 0.01 to 0.1 µM

The record that follows has no IC50 shown yet.
input: GET /values?readout=IC50&item= C=CC(=O)Nc1cn(C)nc1-c1n[nH]c2c1CCCC(c1cc(OC)cc(OC)c1F)C2 (single isomer, unassigned) [Compound S12-P3]
output: < 0.01 µM

* * *

Test system: MAPK phosphorylation in Hep3B cells stimulated with FGF19
Assay: FGFR4 pMAPK AlphaLISA SureFire Ultra assay
Format: cell-based
Conditions: Homo sapiens, Hep3B, serum-starved, compound 1 hour, FGF19 100 ng/ml for 4 hours, read-out: Potency (IC50), FGFR4 pMAPK AlphaLISA
Form field: IC50 (one value per entry).

Recorded results for 5 compounds are shown here.
input: Fill in the blank: the reported IC50 of C=CC(=O)Nc1cnn(C)c1-c1n[nH]c2c1CCC1(C2)OCc2c(OC)cc(OC)c(F)c21 (stereo not shown) is ____.
output: > 100 nM

input: Data request, read-out IC50, for C=CC(=O)Nc1cnn(C)c1-c1n[nH]c2c1CCC(c1c(F)c(OC)cc(OC)c1F)=C2 [Compound S5-P1]
output: < 10 nM

input: Find the recorded IC50 belonging to C=CC(=O)Nc1cnn(CC)c1-c1n[nH]c2c1CC[C@@H](c1c(F)c(OC)cc(OC)c1F)C2 [Compound S14-P1] and report it.
output: 10 to 100 nM

input: What does the data say about its IC50? Entry: C=CC(=O)Nc1cn[nH]c1-c1n[nH]c2c1CCCC(c1cc(OC)cc(OC)c1F)C2 (single isomer, unassigned)
output: < 10 nM

input: I would be grateful if you could share the reported IC50 for [2H]C([2H])([2H])n1ncc(NC(=O)C=C)c1-c1n[nH]c2c1CCC(c1c(F)c(OC)cc(OC)c1F)C2 (single isomer, unassigned) [Compound S16-P1] .
output: < 10 nM

---
input: Which value of IC50 has been reported for C=CC(=O)Nc1cn(C)nc1-c1n[nH]c2c1CCC[C@H](c1c(F)c(OC)cc(OC)c1F)C2 (single isomer, unassigned) [Compound S12-P1] in the records?
output: < 10 nM

input: IC50 for C=CC(=O)Nc1c[nH]nc1-c1n[nH]c2c1CCC(c1c(F)c(OC)cc(OC)c1F)C2 (single isomer, unassigned) [Compound S15-P1] ?
output: < 10 nM

input: Entry C=CC(=O)Nc1cnn(C)c1-c1n[nH]c2c1CCC(c1cc(OC)cc(OC)c1F)=C2 [Compound S5-P2] : reported IC50 = ?
output: 10 to 100 nM

input: Endpoint output: IC50 of C=CC(=O)Nc1cnn(CC)c1-c1n[nH]c2c1CC[C@H](c1c(F)c(OC)cc(OC)c1F)C2 [Compound S14-P2] . Value?
output: < 10 nM

input: Consider the compound C=CC(=O)Nc1cnn(C)c1-c1n[nH]c2c1CCC[C@@H](c1c(F)c(OC)cc(OC)c1F)C2 (single isomer, unassigned) [Compound S4-P1] and give its measured IC50.
output: < 10 nM

* * *

Test system: Hep3B cells
Experiment: Cell-based FGFR4 proliferation assay (CellTiter-Glo)
Conditions: incubated with test compound for 3 days, CellTiter-Glo luminescence, read-out: Potency (IC50), Hep3B cell proliferation
pIC50: −log10 of the molar value.
Reported pIC50 values are given for each entry in this list.

Completed entries (count: 2):
input: Looking for the measured pIC50 of C=CC(=O)Nc1c[nH]nc1-c1n[nH]c2c1CCC(c1cc(OC)cc(OC)c1F)C2 (single isomer, unassigned) , can you help?
output: 7.00 to 8.00

input: // pIC50 lookup, key: C=CC(=O)Nc1cn[nH]c1-c1n[nH]c2c1CCC[C@@H](c1c(F)c(OC)cc(OC)c1F)C2 [Compound S11-P2]
output: > 8.00

More entries:
input: Report pIC50 for [2H]C([2H])([2H])n1ncc(NC(=O)C=C)c1-c1n[nH]c2c1CCC(c1c(F)c(OC)cc(OC)c1F)C2 (single isomer, unassigned) [Compound S16-P2] please.
output: 7.00 to 8.00

input: Tell me the measured pIC50 of C=CC(=O)Nc1cnn(C)c1-c1n[nH]c2c1COC(c1c(F)c(OC)cc(OC)c1F)C2 (single isomer, unassigned) [Compound S6-P2] , please.
output: < 7.00

input: Which pIC50 value belongs to [2H]C([2H])([2H])n1ncc(NC(=O)C=C)c1-c1n[nH]c2c1CCC(c1cc(OC)cc(OC)c1F)C2 (single isomer, unassigned) ?
output: < 7.00

input: What value of measured pIC50 is listed for [2H]C([2H])([2H])Oc1cc(OC([2H])([2H])[2H])c(F)c(C2CCc3c(-c4c(NC(=O)C=C)cnn4C)n[nH]c3C2)c1F (single isomer, unassigned) [Compound S8-P2] ?
output: 7.00 to 8.00

input: Consider the molecule C=CC(=O)Nc1cn(C)nc1-c1n[nH]c2c1CCCC(c1cc(OC)cc(OC)c1F)C2 (single isomer, unassigned) and give its measured pIC50.
output: > 8.00

input: GET /values?readout=pIC50&item= [2H]C([2H])([2H])Oc1cc(OC([2H])([2H])[2H])c(F)c(C2CCc3c(-c4c(NC(=O)C=C)cnn4C)n[nH]c3C2)c1 (single isomer, unassigned)
output: < 7.00

input: Dear colleague, I am looking for the recorded pIC50 of the following molecule: C=CC(=O)Nc1cnn(C(C)C)c1-c1n[nH]c2c1CCC(c1c(F)c(OC)cc(OC)c1F)C2 (single isomer, unassigned) [Compound S17-P2]
output: 7.00 to 8.00

input: // returns reported pIC50 for input C=CC(=O)Nc1cnn(C)c1-c1n[nH]c2c1CCC(c1c(F)c(OC)cc(OC)c1F)C2 (single isomer, unassigned) [Compound S1-P2]
output: 7.00 to 8.00

input: Which pIC50 value belongs to C=CC(=O)Nc1ncn(C)c1-c1n[nH]c2c1CCC(c1c(F)c(OC)cc(OC)c1F)C2 (single isomer, unassigned) [Compound S3-P2] ?
output: < 7.00

input: Requested read-out: pIC50. Entry: C=CC(=O)Nc1cn[nH]c1-c1n[nH]c2c1CCCC(c1cc(OC)cc(OC)c1F)C2 (single isomer, unassigned)
output: > 8.00

input: Item under review: C=CC(=O)Nc1c[nH]nc1-c1n[nH]c2c1CCC(c1c(F)c(OC)cc(OC)c1F)C2 (single isomer, unassigned) [Compound S15-P2] . Reported pIC50?
output: > 8.00

input: What does the record list as pIC50 for C=CC(=O)Nc1cnn(C(C)C)c1-c1n[nH]c2c1CCC(c1c(F)c(OC)cc(OC)c1F)C2 (single isomer, unassigned) [Compound S17-P1] ?
output: < 7.00
